tested on: MDA-MB-231 breast; experiment: NCI tumour cell line growth inhibition, 48 h
readout kind: TGI

compound	observed measurement
NC(=Nc1ccc(N)cc1)C(N)=Nc1ccc(N)cc1	> 100 µM
CC12CCC3c4cc(Br)c(O)c(Br)c4CCC3C1CCC2O (centres undefined)	27.4 µM
COc1cccc(C2C3=C(COC3=O)N(CCO)c3cc4c(cc32)OCO4)c1 (centres undefined)	45.8 µM
Cc1c(N2C(=O)/C(=C/c3ccc(N(CCC#N)CCC#N)cc3)N=C2c2ccccc2)c(=O)n(-c2ccccc2)n1C	> 100 µM
Oc1[nH]c2ccccc2c1N=Nc1c(F)c(F)c(F)c(F)c1F	> 100 µM
Cc1cnc(Nc2ccc(N3CCN(C)CC3)cc2)nc1Nc1ccc(Cl)c(NS(=O)(=O)C(C)(C)C)c1	2.23 µM
C=C1C(=O)O[C@H]2[C@H]1CC/C(COC(=O)NCCc1c[nH]c3ccc(Cl)cc13)=C\CC[C@@]1(C)O[C@@H]21	3.44 µM
NC1Cc2ccccc2OC1=O (centres undefined)	> 100 µM

State recorded TGI for all listed compounds.
1. CC(=O)C(=[N+]=[N-])C(=O)N(C)CCC#N
2. CN1C(=O)CC2CCC(=O)N2c2cccnc21 (centres undefined)
3. O=C(Nc1cccc2ccccc12)c1ccccc1
4. O=C(C[P+](c1ccccc1)(c1ccccc1)c1ccccc1)C[P+](c1ccccc1)(c1ccccc1)c1ccccc1
5. COc1ccc(Cn2cc3c(c2-c2ccccc2)CCc2cnoc2-3)cc1N
6. Nc1ccccc1C#C/C=C\C#Cc1c(F)c(F)c(F)c(F)c1F

OUT:
["> 10 µM", "> 100 µM", "> 100 µM", "1.4 µM", "> 100 µM", "16.7 µM"]

----------
Assign TGI to each entry below.
test system: NCI-H226 lung; test: NCI tumour cell line growth inhibition, 48 h

compound	tested on	TGI
NNC(=O)c1ccc(OCc2nc3ccccc3[nH]2)cc1	NCI-H226 lung	> 100 µM

State recorded TGI for all listed compounds.
1. Nc1nc(=O)n([C@@H]2CS[C@H](CO)O2)cc1F
2. C=CCc1cc(C(Cc2ccccc2)NC(C)C)cc(OCc2ccccc2)c1OCc1ccccc1 (stereo not given)
3. C=CCOC(=O)C1CCC(=O)N1C(=O)C(Cl)Cl (stereo not given)
4. COP(=O)(OC)/C(=C/c1cn(C(c2ccccc2)(c2ccccc2)c2ccccc2)cn1)NC=O
5. CC(=O)N(O)Cc1ccccc1
6. Cc1cc(O)c(/C=N/C(=S)Nc2ccccc2)c(=O)o1

OUT:
["> 100 µM", "36.2 µM", "> 100 µM", "98.9 µM", "> 100 µM", "> 100 µM"]

----------
tested on: NCI/ADR-RES ovarian; test: NCI tumour cell line growth inhibition, 48 h
readout kind: TGI (µM)
Numbers only, in µM.

Sample answers from the record:
smiles text	tested on	readout kind	readout unit	observed measurement
Cc1ccc(-c2nc(-c3cn(C)c4ncccc34)cs2)cc1	NCI/ADR-RES ovarian	TGI	µM	6.8
Nc1ccc(-c2nc3ccccc3s2)cc1C#Cc1ccccc1	NCI/ADR-RES ovarian	TGI	µM	48.6

IN: Could you share which TGI value was measured for O=C(CC(=O)c1cccc(Cl)c1)c1cccc(Cl)c1 ?
OUT: 6.35

----------
tested on: CCRF-CEM leukemia; assay: NCI tumour cell line growth inhibition, 48 h
Assign TGI to each entry below.

Sample answers from the record:
molecule	observed measurement
COC(=O)[C@@H]1CC(C(CN)c2cn(C(=O)OC(C)(C)C)c3ccccc23)C(=O)N1C(=O)OC(C)(C)C (stereo partly specified)	34.8 µM
Cc1cccc2c(N)c3cccc(C(=O)NCC[N+]4(Cc5ccc([N+](=O)[O-])cc5)CCOCC4)c3nc12	> 100 µM
CCOC(=O)c1cc(C2CCN(c3ccccc3)C2=O)c(C(=O)/C=C(/C)N)[nH]1 (stereo unspecified)	> 100 µM
COc1cccc(C2C3=C(COC3=O)N(CCO)c3cc4c(cc32)OCO4)c1 (stereo unspecified)	> 50 µM
COc1ccc(C(=O)N/N=C/c2c(C)n(C)n(-c3ccccc3)c2=O)cc1	> 100 µM

State recorded TGI for all listed molecules.
1. Cc1ccc(-c2nc(-c3cn(C)c4ncccc34)cs2)cc1
2. CCOC(=O)C1([Se]c2ccccc2)CCCC1=O (stereo unspecified)
3. O=C(CCc1nnc2s/c(=C\c3ccccc3Cl)c(=O)n12)Nc1cc(Cl)ccc1Cl
4. N#Cc1c(N)nc(NCc2ccccc2)c(C#N)c1-c1ccc(Cl)cc1Cl

OUT:
1: > 80 µM; 2: 56.8 µM; 3: > 100 µM; 4: 28.6 µM

State recorded TGI for all listed molecules.
1. O=C(O)c1ccc(Nc2nc3cc(C(F)(F)F)ccc3n3cccc23)cc1
2. COc1cc(C2c3cc4c(cc3[C@@H](Oc3ccc(F)cc3)C3COC(=O)[C@H]23)OCO4)cc(OC)c1O (stereo partly specified)
3. O=c1cc(-c2ccccc2)oc2cc(OC/C(=N/O)c3ccc(F)cc3)ccc12
4. CN(C)CCNC(=O)c1cccc2ccc(-c3ccc(-c4ccccc4)cc3)nc12
5. COc1cc2ccc1OCc1cccc(n1)COc1ccc(cc1OC)C=NCCNCCNCCN=C2

OUT:
1. > 100 µM
2. > 23.2 µM
3. > 50 µM
4. 11.5 µM
5. > 100 µM

State recorded TGI for all listed molecules.
1. CCOC(=O)c1ccc2c(c1)[n+](=O)c(C(C)=O)c(C(F)(F)F)n2[O-]
2. O=C(NCCNc1nccc(-c2c(-c3cccc(O)c3)nc3sccn23)n1)c1ccccc1
3. Oc1[nH]c2ccccc2c1N=Nc1c(F)c(F)c(F)c(F)c1F
4. c1ccc2c(c1)ccn1ccc3c4ccccc4nc-3c21

OUT:
["4.59 µM", "34.1 µM", "16.5 µM", "1.43 µM"]

State recorded TGI for all listed molecules.
1. CCOC(=O)/C(=C/c1ccc(N(CCC#N)CCC#N)cc1C)NC(=O)/C=C/c1ccccc1
2. CC1(C)CCCCCC(C)(CCCO)C1=O (stereo unspecified)
3. Cc1cn(-c2ccc(S(C)(=O)=O)cc2)c(-c2ccc(Cl)cc2)n1

OUT:
1. > 100 µM
2. > 100 µM
3. > 100 µM

----------
test system: OVCAR-8 ovarian; test: NCI tumour cell line growth inhibition, 48 h
Assign TGI to each entry below.

Sample answers from the record:
compound	observed measurement
CO[C@@H]1C[C@H](OC(N)=O)[C@@H]2C=C[C@@H]3/C=C(C)/C=C/[C@@H](C)[C@H](/C(C)=C/[C@@H](C)NC(C)=O)OC(=O)/C=C/C=C(C)\C=C\[C@]3(C)[C@@H]2C1	50 µM
C/C=C/COC(=O)CO[N+](=O)[O-]	> 100 µM
CCOC(=O)C(O)(C(=O)OCC)c1cc(C(C)(C)C)c(O)c(C(C)(C)C)c1	> 100 µM
CC(=O)c1cc(C(=O)c2ccc3c(c2)Sc2ccccc2N3)c2c(C)cccn12	> 31.8 µM
CCOC(=O)C(CNc1ccc(O)cc1)NC(=O)c1ccccc1 (stereo unspecified)	> 100 µM
COc1cccc(C2C3=C(COC3=O)N(CCO)c3cc4c(cc32)OCO4)c1 (stereo unspecified)	> 50 µM
CCCC1(CCC)c2cc(/C=N\O)ccc2-c2ccc(-c3ccc(C(C)(C)C)cc3)cc21	> 100 µM
OC12c3ccccc3C3CCC4(OCCO4)C3C1c1ccccc12 (stereo unspecified)	> 100 µM
CC(C)/C(=N\[N+](C)(C)C)c1ccccc1	> 100 µM
COc1ccc2c3c([nH]c2c1)CCN(Cc1ccccc1)C3	> 100 µM

State recorded TGI for all listed compounds.
1. O=S(=O)(O)Oc1cc2c(c(OS(=O)(=O)O)c1)C[C@H](OS(=O)(=O)O)[C@@H](c1ccc(OS(=O)(=O)O)c(OS(=O)(=O)O)c1)O2
2. Cn1c(=S)c2[nH]c(SCCN3C(=O)c4ccccc4C3=O)nc2n(C)c1=O
3. COc1cc(C2c3cc4c(cc3[C@@H](Oc3ccc(F)cc3)C3COC(=O)[C@H]23)OCO4)cc(OC)c1O (stereo partly specified)
4. CC(=O)N(O)Cc1ccccc1

OUT:
1: > 100 µM; 2: > 100 µM; 3: > 100 µM; 4: > 100 µM

State recorded TGI for all listed compounds.
1. C=CCCCCOC1C=CC(O)C(CO)O1 (stereo unspecified)
2. Cc1cc(=O)[nH]c(CNC(=O)c2cccc(C(=O)NCc3cc(=O)[nH]c(C)n3)c2)n1
3. COC(=O)/C=C\C(C#N)(C#N)N=Cc1sccc1C
4. CC/C=C/C[C@H](O)[C@H]1C[C@H]2O[C@H](CC(=O)OC)C[C@H]2O1

OUT:
> 100 µM
> 100 µM
8.69 µM
> 100 µM

State recorded TGI for all listed compounds.
1. COC(=O)/C=c1\s/c(=C\C(=O)OC)c2ccccc12
2. Cc1ccc(NCCN(C)C)c2c(=O)c3ccccc3sc12
3. O=C(O)c1ccc(Nc2nc3cc(C(F)(F)F)ccc3n3cccc23)cc1
4. COc1ccc(-n2c(=O)n(-c3ccccc3)c(=O)n2-c2ccc(OC)cc2)cc1
5. Oc1[nH]c2ccccc2c1N=Nc1c(F)c(F)c(F)c(F)c1F
6. C=CCOc1ccccc1C1(O)c2ccccc2C2=NCCCN21 (stereo unspecified)

OUT:
1: > 100 µM; 2: 12.4 µM; 3: > 100 µM; 4: > 100 µM; 5: > 100 µM; 6: 34.6 µM

State recorded TGI for all listed compounds.
1. CCOC(=O)c1cnn2c3ccccc3n(S(=O)(=O)c3ccc(OC)cc3)c12
2. c1ccc(P(=C2c3ccccc3-c3ccccc32)(c2ccccc2)c2ccccc2)cc1
3. N#Cc1c(-c2ccc(Cl)cc2)c2c(N=Nc3c(O)ccc4ccccc34)[nH]nc2[nH]c1=O
4. COc1ccc(C2C3CCCC(C3=O)C(c3ccc(OC)cc3)N2N=O)cc1 (stereo unspecified)

OUT:
1. > 100 µM
2. 12.7 µM
3. 1.21 µM
4. > 100 µM
